Values compiled from patent US9624223B2.

Target: human opioid receptor δ (Homo sapiens, UniProt P41143)
Construct: host or cells: CHO cells
Sequence (P41143 whole entry): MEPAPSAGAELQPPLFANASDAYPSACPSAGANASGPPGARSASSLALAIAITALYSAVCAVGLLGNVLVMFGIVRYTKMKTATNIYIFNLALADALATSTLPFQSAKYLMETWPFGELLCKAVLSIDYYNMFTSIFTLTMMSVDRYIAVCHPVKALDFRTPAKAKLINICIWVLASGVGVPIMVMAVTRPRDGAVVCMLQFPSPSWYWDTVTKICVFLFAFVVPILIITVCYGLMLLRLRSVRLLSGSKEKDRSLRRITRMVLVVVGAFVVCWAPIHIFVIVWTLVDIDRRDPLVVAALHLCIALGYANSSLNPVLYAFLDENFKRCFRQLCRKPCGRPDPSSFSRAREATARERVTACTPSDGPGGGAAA
Experiment: Opioid receptor function test (Lance Ultra cAMP Kit), δ receptor
Format: cell-based
Settings: maximum reaction relative to SNC 80 taken as 100%
attribute-measured: Emax

N[C@@H](CO)CN1CC[C@@]23c4cc(O)ccc4C[C@@H]1[C@]21CC[C@@H]2[C@H]3[C@@H](CN2C(=O)c2ccccc2)C1 ... 105%
NCCN1CC[C@@]23c4cc(O)ccc4C[C@@H]1[C@]21CC[C@@H]2[C@H]3[C@@H](CN2C(=O)c2ccccc2)C1 ... 101%
CN1CCC[C@H]1CN1CCC23c4cc(O)ccc4CC1C21CCC2C3[C@@H](CN2C(=O)c2ccccc2)C1 (some centres unmarked) ... 103%
NCCCN1CCC23c4cc(O)ccc4CC1C21CCC2C3[C@@H](CN2C(=O)c2ccccc2)C1 (some centres unmarked) ... 103%

Observed Emax on human opioid receptor δ (Homo sapiens, UniProt P41143) for CN(C)CCN1CCC23c4cc(O)ccc4CC1C21CCC2C3[C@@H](CN2C(=O)c2ccccc2)C1 (some centres unmarked) , please.
104%
